tested-target: Hpl (hemophilin, Hh Hpl) (Haemophilus haemolyticus, UniProt A0A0M3G7Q5)
Construct: signal peptide omitted, expressed in E. coli cytoplasm as previously described, apo-protein by acid acetone; strain BW1 printed for the secretion clone only
Sequence (A0A0M3G7Q5 entry or part of it): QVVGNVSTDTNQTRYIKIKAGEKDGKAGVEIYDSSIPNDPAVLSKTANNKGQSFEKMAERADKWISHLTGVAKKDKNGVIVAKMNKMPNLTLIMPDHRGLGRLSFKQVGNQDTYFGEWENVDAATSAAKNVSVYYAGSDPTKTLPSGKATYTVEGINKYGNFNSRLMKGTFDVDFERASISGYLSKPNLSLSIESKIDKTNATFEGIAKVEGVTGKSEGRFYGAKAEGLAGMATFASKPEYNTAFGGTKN
test-method-notes: biochemical
measurement-name: pKd
Answers are plain numbers, as −log10 of the molar value.

In: Please give measured pKd of the following entry: C=CC1=C(C)c2cc3[nH]c(cc4nc(cc5[nH]c(cc1n2)c(C)c5CCC(=O)O)C(CCC(=O)O)=C4C)c(C)c3C=C [PPIX]
Out: 7.15

* * *

tested-target: HrpC (Xn HrpC) (Xenorhabdus nematophila, UniProt D3VG73)
Construct: gene XNC1_0075; residues 23-247, signal peptide omitted, His6 tag cut by TEV leaving N-terminal Gly-His-Met, E. coli Rosetta-2, apo-protein by RP-HPLC
Sequence (D3VG73 entry or part of it): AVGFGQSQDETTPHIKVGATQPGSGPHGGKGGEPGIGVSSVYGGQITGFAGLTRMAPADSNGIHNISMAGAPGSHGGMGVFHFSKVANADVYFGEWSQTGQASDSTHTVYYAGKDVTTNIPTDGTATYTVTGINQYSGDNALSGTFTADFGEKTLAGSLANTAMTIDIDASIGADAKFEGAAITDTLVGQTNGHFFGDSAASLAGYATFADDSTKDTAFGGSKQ
Format: binding
experimental-context: 20 mM Tris-HCl pH 8.0, 21 °C; brackets 95% confidence interval; b21 prints both nM and µM for this value, table nM
measurement-name: Kd (nM)
One number for each entry, in nM.

In: For the compound C=CC1=C(C)C2=Cc3c(C=C)c(C)c4[n]3[Fe]([Cl])[n]3c(c(C)c(CCC(=O)O)c3=CC3=NC(=C4)C(C)=C3CCC(=O)O)=CC1=N2 , give its reported Kd.
Out: 20

* * *

tested-target: HrpC (Xn HrpC) (Xenorhabdus nematophila, UniProt D3VG73)
Construct: gene XNC1_0075; residues 23-247, signal peptide omitted, His6 tag cut by TEV leaving N-terminal Gly-His-Met, E. coli Rosetta-2, apo-protein by RP-HPLC
Assay type: binding
experimental-context: 20 mM Tris-HCl pH 8.0, 21 °C; brackets 95% confidence interval
measurement-name: Kd (nM)
One number for each entry, in nM.

In: Identify the reported Kd for the following entry. C=CC1=C(C)c2cc3[nH]c(cc4nc(cc5[nH]c(cc1n2)c(C)c5CCC(=O)O)C(CCC(=O)O)=C4C)c(C)c3C=C [PPIX]
Out: 20

* * *

tested-target: Ab HphA (Acinetobacter baumannii, UniProt A0A059ZRB8)
Sequence (A0A059ZRB8 whole entry): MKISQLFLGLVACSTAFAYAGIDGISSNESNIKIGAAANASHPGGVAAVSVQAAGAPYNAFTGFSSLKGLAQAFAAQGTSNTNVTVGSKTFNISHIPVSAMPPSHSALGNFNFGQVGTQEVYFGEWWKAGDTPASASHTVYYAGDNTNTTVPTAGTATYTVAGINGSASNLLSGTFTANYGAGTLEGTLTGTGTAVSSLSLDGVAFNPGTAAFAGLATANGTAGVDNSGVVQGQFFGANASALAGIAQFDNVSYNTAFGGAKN
measurement-name: Kd

In: Give the observed Kd of C=CC1=C(C)c2cc3[nH]c(cc4nc(cc5[nH]c(cc1n2)c(C)c5CCC(=O)O)C(CCC(=O)O)=C4C)c(C)c3C=C [PPIX] for Ab HphA (Acinetobacter baumannii, UniProt A0A059ZRB8).
Out: ≤ 15 nM
